tested-system: LTA4-h (Homo sapiens, UniProt P09960)
Sequence (P09960 1-611): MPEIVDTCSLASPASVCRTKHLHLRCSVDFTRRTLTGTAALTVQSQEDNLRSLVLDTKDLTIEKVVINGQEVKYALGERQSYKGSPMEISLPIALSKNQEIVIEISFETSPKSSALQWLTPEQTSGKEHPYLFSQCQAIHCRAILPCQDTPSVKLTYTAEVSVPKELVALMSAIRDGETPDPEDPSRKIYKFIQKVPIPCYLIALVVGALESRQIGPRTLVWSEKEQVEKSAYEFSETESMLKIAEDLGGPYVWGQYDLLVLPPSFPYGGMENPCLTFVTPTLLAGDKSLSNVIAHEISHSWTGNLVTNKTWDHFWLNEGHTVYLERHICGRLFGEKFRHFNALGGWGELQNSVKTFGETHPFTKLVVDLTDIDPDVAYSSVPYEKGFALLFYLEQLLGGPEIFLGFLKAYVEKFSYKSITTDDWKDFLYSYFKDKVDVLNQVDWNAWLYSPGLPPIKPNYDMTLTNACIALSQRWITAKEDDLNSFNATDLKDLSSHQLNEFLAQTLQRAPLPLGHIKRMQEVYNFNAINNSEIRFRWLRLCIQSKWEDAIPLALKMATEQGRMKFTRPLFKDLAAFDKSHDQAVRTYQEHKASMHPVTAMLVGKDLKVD
method-description: Hydrolase assay (hydrolase-homogeneous time resolved fluorescence, LTB4 produced)
Assay type: biochemical
pIC50: −log10 of the molar value.
reported-endpoint: pIC50

Solved cases (10 shown):
molecule="O=C(O)c1ccc(CN2CC(Nc3ccc(Oc4ccc(Cl)cc4)cc3)C2)cc1 [Compound 7]" value_measured=8.30
molecule="O=C(O)c1cccc(CN(CC2CCNC2)c2ccc(Oc3ccc(Cl)cc3)cc2)c1 (stereo not shown) [Compound 36]" value_measured=7.92
molecule="COC(=O)c1ccc(CN(CC2CCNC2)c2ccc(Oc3ccc(Cl)cc3)cc2)cc1 (stereo not shown) [Compound 10]" value_measured=7.66
molecule="Clc1ccc(Oc2ccc(NCC3CCNC3)cc2)cc1 (stereo not shown) [Compound 1]" value_measured=7.59
molecule="O=C(O)CN(CC1CCNC1)c1ccc(Oc2ccc(Cl)cc2)cc1 (stereo not shown) [Compound 29]" value_measured=6.49
molecule="O=C(O)c1cccc(CN(CC2CNC2)c2ccc(Oc3ccc(Cl)cc3)cc2)c1 [Compound 37]" value_measured=7.21
molecule="CN1CCC(CN(Cc2ccc(C(=O)O)cc2)c2ccc(Oc3ccc(Cl)cc3)cc2)C1 (stereo not shown) [Compound 15]" value_measured=6.33
molecule="COC(=O)c1ccc(CN(CC2CCN(C)C2)c2ccc(Oc3ccc(Cl)cc3)cc2)cc1 (stereo not shown) [Compound 12]" value_measured=7.15
molecule="CC(C)(C)OC(=O)N1CCC(CN(Cc2ccc(S(N)(=O)=O)cc2)c2ccc(Oc3ccc(Cl)cc3)cc2)C1 (stereo not shown) [Compound 32]" value_measured=5.89
molecule="COC(=O)c1ccc(CN(CC2CNC2)c2ccc(Oc3ccc(Cl)cc3)cc2)cc1 [Compound 28]" value_measured=6.77

a = O=C(O)c1ccc(CN(CC2CCNC2)c2ccc(Oc3ccc(Cl)cc3)cc2)cc1 (stereo not shown) [Compound 11]
b = O=C(O)c1ccc(CN2CCC(CN(Cc3ccc(C(=O)O)cc3)c3ccc(Oc4ccc(Cl)cc4)cc3)C2)cc1 (stereo not shown) [Compound 3]
Hi, I'm comparing a with b and wondering which one has the bigger number for pIC50. Any idea? In your reply, give the label of the chosen option.
a
(a: 7.15, b: 6.52)

A = CN1CCC(CN(Cc2ccc(F)cc2)c2ccc(Oc3ccc(Cl)cc3)cc2)C1 (stereo not shown) [Compound 20]
B = NS(=O)(=O)c1ccc(CN(CC2CCNC2)c2ccc(Oc3ccc(Cl)cc3)cc2)cc1 (stereo not shown) [Compound 38]
Of A and B , which one carries the higher reported pIC50? # respond with the chosen item's label
B
(B: 7.92, A: 6.85)

P = Clc1ccc(Oc2ccc(NCC3CCCCN3)cc2)cc1 (stereo not shown) [Compound 2]
Q = Clc1ccc(Oc2ccc(NC3CNC3)cc2)cc1 [Compound 5]
R = Clc1ccc(Oc2ccc(NCC3CNC3)cc2)cc1 [Compound 4]
S = O=C(O)c1ccc(CN2CCC(CN(Cc3ccccc3)c3ccc(Oc4ccc(Cl)cc4)cc3)C2)cc1 (stereo not shown) [Compound 25]
T = O=C(O)c1ccc(CN2CCC(CN(Cc3ccc(F)cc3)c3ccc(Oc4ccc(Cl)cc4)cc3)C2)cc1 (stereo not shown) [Compound 24]
Ascending sort, pIC50. Please express your ranking as an ordered list of the labels.
S, T, Q, P, R
(S: 5.81, T: 6.06, Q: 6.52, P: 6.72, R: 8.10)

I = O=C(O)c1ccc(CN(CC2CNC2)c2ccc(Oc3ccc(Cl)cc3)cc2)cc1 [Compound 30]
II = O=C(O)c1ccc(CN(CC2CCN(Cc3ccc(F)cc3)C2)c2ccc(Oc3ccc(Cl)cc3)cc2)cc1 (stereo not shown) [Compound 16]
Exercise: compare I and II ; which one has the greater pIC50? Kindly state the label of the option you pick.
I

====

tested-system: LTA4-h (Homo sapiens, UniProt P09960)
method-description: Peptidase (aminopeptidase) assay
Assay type: biochemical
reported-endpoint: IC50 (µM)

compound="COC(=O)c1coc(CN(CC2CCNC2)c2ccc(Oc3ccc(Cl)cc3)cc2)n1 (centres unmarked) [Compound 40]" value_measured=0.125
compound="O=C(O)c1cccc(CN(CC2CCNC2)c2ccc(Oc3ccc(Cl)cc3)cc2)c1 (centres unmarked) [Compound 36]" value_measured=0.06
compound="Clc1ccc(Oc2ccc(NC3CNC3)cc2)cc1 [Compound 5]" value_measured=0.031
compound="COC(=O)c1ccc(CN(CC2CCNC2)c2ccc(Oc3ccc(Cl)cc3)cc2)cc1 (centres unmarked) [Compound 10]" value_measured=0.013
compound="O=C(O)c1ccc(CN2CCC(CN(Cc3ccccc3)c3ccc(Oc4ccc(Cl)cc4)cc3)C2)cc1 (centres unmarked) [Compound 25]" value_measured=0.37
compound="Clc1ccc(Oc2ccc(NCC3CCCCN3)cc2)cc1 (centres unmarked) [Compound 2]" value_measured=0.072
compound="Clc1ccc(Oc2ccc(NC[C@@H]3CCCN3)cc2)cc1 [Compound 42]" value_measured=0.07
compound="O=C(O)c1ccc(CN2CC(Nc3ccc(Oc4ccc(Cl)cc4)cc3)C2)cc1 [Compound 7]" value_measured=0.004

P = Clc1ccc(Oc2ccc(NCC3CCNC3)cc2)cc1 (centres unmarked) [Compound 1]
Q = COC(=O)c1ccc(CN(CC2CCN(Cc3ccccc3)C2)c2ccc(Oc3ccc(Cl)cc3)cc2)cc1 (centres unmarked) [Compound 14]
Kindly identify which of P and Q has the larger recorded IC50 value. Please indicate the selected item by its label.
Q

====

tested-system: LTA4-h (Homo sapiens, UniProt P09960)
Sequence (P09960 1-611): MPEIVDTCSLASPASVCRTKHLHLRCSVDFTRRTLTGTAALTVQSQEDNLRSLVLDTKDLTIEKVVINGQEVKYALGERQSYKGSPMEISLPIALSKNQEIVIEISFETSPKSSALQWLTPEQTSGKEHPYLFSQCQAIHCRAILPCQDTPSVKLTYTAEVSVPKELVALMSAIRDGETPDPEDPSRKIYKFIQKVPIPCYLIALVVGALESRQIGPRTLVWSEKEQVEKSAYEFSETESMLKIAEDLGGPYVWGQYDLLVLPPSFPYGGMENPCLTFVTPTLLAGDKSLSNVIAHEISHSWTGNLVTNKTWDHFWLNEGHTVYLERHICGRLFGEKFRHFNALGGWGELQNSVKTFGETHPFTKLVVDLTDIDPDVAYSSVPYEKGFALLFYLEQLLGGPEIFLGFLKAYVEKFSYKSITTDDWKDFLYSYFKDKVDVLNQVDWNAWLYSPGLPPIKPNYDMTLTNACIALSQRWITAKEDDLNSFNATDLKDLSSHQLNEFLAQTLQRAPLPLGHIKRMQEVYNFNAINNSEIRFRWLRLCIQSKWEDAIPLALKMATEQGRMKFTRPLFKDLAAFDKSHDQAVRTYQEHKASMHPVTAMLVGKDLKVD
method-description: Peptidase (aminopeptidase) assay
Type: biochemical
pIC50: −log10 of the molar value.
reported-endpoint: pIC50

Record excerpt, results attached:
compound="O=C(O)c1ccc(CN2CCC(CN(Cc3ccc(F)cc3)c3ccc(Oc4ccc(Cl)cc4)cc3)C2)cc1 (centres unmarked) [Compound 24]" value_measured=6.28
compound="Clc1ccc(Oc2ccc(NC3CC4CCC(C3)N4)cc2)cc1 (centres unmarked) [Compound 6]" value_measured=6.80
compound="NS(=O)(=O)c1ccc(CN(C[C@@H]2CCCN2)c2ccc(Oc3ccc(Cl)cc3)cc2)cc1 [Compound 44]" value_measured=6.96

1 = O=C(O)CN(CC1CCNC1)c1ccc(Oc2ccc(Cl)cc2)cc1 (centres unmarked) [Compound 29]
2 = O=C(O)c1ccc(CN2CCC(CN(Cc3ccc(C(=O)O)cc3)c3ccc(Oc4ccc(Cl)cc4)cc3)C2)cc1 (centres unmarked) [Compound 3]
3 = CN1CCC(CN(Cc2ccc(C(=O)O)cc2)c2ccc(Oc3ccc(Cl)cc3)cc2)C1 (centres unmarked) [Compound 15]
// ascending sort on recorded pIC50 Order the labels as requested and give them as your answer.
3, 2, 1
(3: 6.54, 2: 7.06, 1: 7.66)

1 = NS(=O)(=O)c1ccc(CN(CC2CCNC2)c2ccc(Oc3ccc(Cl)cc3)cc2)cc1 (centres unmarked) [Compound 38]
2 = COC(=O)c1ccc(CN(CC2CCN(C)C2)c2ccc(Oc3ccc(Cl)cc3)cc2)cc1 (centres unmarked) [Compound 12]
Between 1 and 2 , whose recorded pIC50 is greater? Answer with the label corresponding to your selection.
1
(1: 7.59, 2: 6.82)

A = O=C(O)c1cccc(CN(CC2CNC2)c2ccc(Oc3ccc(Cl)cc3)cc2)c1 [Compound 37]
B = O=C(O)c1ccc(CN(CC2CCN(Cc3ccc(F)cc3)C2)c2ccc(Oc3ccc(Cl)cc3)cc2)cc1 (centres unmarked) [Compound 16]
C = COC(=O)c1cccc(CN(CC2CN(C(=O)OC(C)(C)C)C2)c2ccc(Oc3ccc(Cl)cc3)cc2)c1 [Compound 31]
D = O=C(O)c1ccc(CN(CC2CNC2)c2ccc(Oc3ccc(Cl)cc3)cc2)cc1 [Compound 30]
Sort by pIC50, descending. # respond with the labels, arranged in the requested order
A, C, D, B

A = Clc1ccc(Oc2ccc(NCC3CNC3)cc2)cc1 [Compound 4]
B = COC(=O)c1cccc(CN(CC2CCNC2)c2ccc(Oc3ccc(Cl)cc3)cc2)c1 (centres unmarked) [Compound 34]
Between the two listed entries A and B , which has its pIC50 at the higher number? Mark your answer with the label of the selected entry.
A
